Hey, just so you know, these numbers are from patent US20230159445A1.

# half-life at 25 μM listing for each entry below
- Tested on: glutathione (GSH)
- TEST_SUMMARY: Reactivity Profiling with Glutathione (GSH), half-life by HPLC
- PROTOCOL_CONDITIONS: 5 mM glutathione (GSH) in IMDM with 10% FBS

COc1cc(C(=O)O)ccc1N(Cc1cc(C2CC2)cc(C(C)(C)C)c1)C(=O)CN(Cc1c(Cl)cc(F)cc1Cl)S(=O)(=O)c1c(F)c(F)c(F)c(F)c1F 4.12 to 9.23 h

Entry CCOc1cc(C(=O)O)cc(F)c1N(Cc1cc(C2CC2)cc(C2CC2)c1)C(=O)CN(Cc1ccc(F)cc1Cl)S(=O)(=O)c1c(F)c(F)c(F)c(F)c1F has what half-life at 25 μM?
4.12 to 9.23 h

Entry CCOc1cc(C(=O)O)ccc1N(Cc1cc(C2CC2)cc(C2CC2)c1)C(=O)CN(Cc1ccc(F)cc1Cl)S(=O)(=O)c1c(F)c(F)c(F)c(F)c1F has what half-life at 25 μM?
2.37 to 4.12 h

Entry COc1cc(C(=O)O)ccc1N(Cc1cc(C2CC2)cc(C2CC2)c1)C(=O)CN(Cc1ccc(F)cc1Cl)S(=O)(=O)c1c(F)c(F)c(F)c(F)c1F has what half-life at 25 μM?
2.37 to 4.12 h

Entry CN(C)c1cc(C(=O)O)ccc1N(Cc1cc(C2CC2)cc(C2CC2)c1)C(=O)CN(Cc1ccccc1C(F)(F)F)S(=O)(=O)c1c(F)c(F)c(F)c(F)c1F has what half-life at 25 μM?
4.12 to 9.23 h

* * *

# half-life at 25 μM listing for each entry below
- Tested on: glutathione (GSH)
- TEST_SUMMARY: Reactivity Profiling with Glutathione (GSH), half-life by HPLC
- PROTOCOL_CONDITIONS: 5 mM glutathione (GSH) in IMDM with 10% FBS

Entry CC(C)COc1cc(C(=O)O)ccc1N(Cc1cc(C2CC2)cc(C2CC2)c1)C(=O)CN(Cc1ccc(F)cc1Cl)S(=O)(=O)c1c(F)c(F)c(F)c(F)c1F [Compound 1255] has what half-life at 25 μM?
9.23 to 1670 h

* * *

- Test system: glutathione (GSH)
- TEST_SUMMARY: Reactivity Profiling with Glutathione (GSH), half-life by HPLC
- PROTOCOL_CONDITIONS: 5 mM glutathione (GSH) in IMDM with 10% FBS
VALUE_TYPE: half-life at 25 μM

CN(C)c1cc(C(=O)O)ccc1N(Cc1cc(C2CC2)cc(C(C)(C)C)c1)C(=O)CN(Cc1ccccc1F)S(=O)(=O)c1c(F)c(F)c(F)c(F)c1F 4.12 to 9.23 h
COc1cc(C(=O)O)ccc1N(Cc1cc(C2CC2)cc(C(C)(C)C)c1)C(=O)CN(Cc1ccc(F)nc1F)S(=O)(=O)c1c(F)c(F)c(F)c(F)c1F 0.00167 to 2.37 h
CN(C)c1cc(C(=O)O)ccc1N(Cc1cc(C2CC2)cc(C2CC2)c1)C(=O)CN(Cc1ccc(F)cc1Cl)S(=O)(=O)c1c(F)c(F)c(F)c(F)c1F 4.12 to 9.23 h
O=C(O)c1ccc(N(Cc2cc(C3CC3)cc(C3CC3)c2)C(=O)CN(Cc2ncc(F)cc2Cl)S(=O)(=O)c2c(F)c(F)c(F)c(F)c2F)c(OC2CC2)c1 4.12 to 9.23 h

Kindly consider the entry below.
Entry COc1ccccc1CN(CC(=O)N(Cc1cc(C2CC2)cc(C(C)(C)C)c1)c1ccc(C(=O)O)cc1OC1CC1)S(=O)(=O)c1c(F)c(F)c(F)c(F)c1F has what half-life at 25 μM?
4.12 to 9.23 h

* * *

# pIC50 listing for each entry below
- Tested on: MV4-11 cells
- TEST_SUMMARY: MV4-11 Cell Cytotoxicity Assay (CellTiter-Blue, 72 h)
- Type: cell-based, human
- PROTOCOL_CONDITIONS: Homo sapiens; MV4-11 cells, 72 h, CellTiter-Blue; read-out: IC50- MV-4-11
pIC50: −log10 of the molar value.

Worked cases, pIC50 given:
O=C(O)c1ccc(N(Cc2cc(O)cc(O)c2)C(=O)CN(Cc2ccc(Cl)cc2)S(=O)(=O)c2c(F)c(F)c(F)c(F)c2F)cc1O 4.00 to 5.50
O=C(O)c1ccc(N(Cc2ccccc2)C(=O)CN(Cc2ccc(Cl)cc2)S(=O)(=O)c2c(F)c(F)c(F)c(F)c2F)cc1O 4.00 to 5.50
COc1cc(C(=O)O)ccc1N(C)C(=O)CN(Cc1ccccc1C(F)(F)F)S(=O)(=O)c1c(F)c(F)c(F)c(F)c1F 5.50 to 6.00
O=C(O)c1ccc(N(Cc2cc(OCC(F)(F)F)cc(OCC(F)(F)F)c2)C(=O)CN(Cc2ccc(Cl)cc2)S(=O)(=O)c2c(F)c(F)c(F)c(F)c2F)cc1O 4.00 to 5.50
CC(C)(C)c1cc(CN(C(=O)CN(Cc2ccc(Cl)cc2)S(=O)(=O)c2c(F)c(F)c(F)c(F)c2F)c2ccc(C(=O)O)c(O)c2)cc(C(C)(C)C)c1 4.00 to 5.50

Entry O=C(O)c1ccc(N(Cc2cc(Cl)cc(Cl)c2)C(=O)CN(Cc2ccc(Cl)cc2)S(=O)(=O)c2c(F)c(F)c(F)c(F)c2F)cc1O has what pIC50?
4.00 to 5.50

* * *

- Tested on: glutathione (GSH)
- TEST_SUMMARY: Reactivity Profiling with Glutathione (GSH), half-life by HPLC
- PROTOCOL_CONDITIONS: 5 mM glutathione (GSH) in IMDM with 10% FBS
VALUE_TYPE: half-life at 25 μM

COMPOUND	half-life at 25 μM
CN(C)c1cc(C(=O)O)c(F)cc1N(Cc1cc(C2CC2)cc(C(C)(C)C)c1)C(=O)CN(Cc1ccccc1F)S(=O)(=O)c1c(F)c(F)c(F)c(F)c1F	4.12 to 9.23 h
CC(C)Oc1cc(CN(C(=O)CN(Cc2ccccc2C(F)(F)F)S(=O)(=O)c2c(F)c(F)c(F)c(F)c2F)c2ccc(C(=O)O)cc2OC2CC2)cc(C2CC2)c1	2.37 to 4.12 h
COc1cc(C(=O)O)ccc1N(Cc1cc(C2CC2)cc(C(C)(C)C)c1)C(=O)CN(Cc1ccncc1F)S(=O)(=O)c1c(F)c(F)c(F)c(F)c1F	0.00167 to 2.37 h
O=C(O)c1ccc(N(Cc2cc(C3CC3)cc(C3CC3)c2)C(=O)CN(Cc2ccc(F)cc2Cl)S(=O)(=O)c2c(F)c(F)c(F)c(F)c2F)c(C2CC2)c1	4.12 to 9.23 h
COc1cc(C(=O)O)ccc1N(Cc1cccc(C(C)(C)C)c1)C(=O)CN(Cc1cnccc1C(F)(F)F)S(=O)(=O)c1c(F)c(F)c(F)c(F)c1F	0.00167 to 2.37 h
COc1cc(C(=O)O)ccc1N(Cc1cccc(C(C)(C)C)c1)C(=O)CN(Cc1c(F)cc(F)cc1F)S(=O)(=O)c1c(F)c(F)c(F)c(F)c1F	0.00167 to 2.37 h
COc1cc(C(=O)O)ccc1N(Cc1cc(C2CC2)cc(C(C)(C)C)c1)C(=O)CN(Cc1ccccc1C(F)(F)F)S(=O)(=O)c1c(F)c(F)c(F)c(F)c1F	4.12 to 9.23 h
Cc1cc(C(=O)O)cc(C)c1N(Cc1cc(C2CC2)cc(C(C)(C)C)c1)C(=O)CN(Cc1ccccc1F)S(=O)(=O)c1c(F)c(F)c(F)c(F)c1F	4.12 to 9.23 h

Entry CCOc1cc(C(=O)O)ccc1N(Cc1cc(C2CC2)cc(N2CCCC2)c1)C(=O)CN(Cc1ccccc1C#N)S(=O)(=O)c1c(F)c(F)c(F)c(F)c1F has what half-life at 25 μM?
2.37 to 4.12 h

Entry O=C(O)c1ccc(N(Cc2cc(C3CC3)cc(C3CC3)c2)C(=O)CN(Cc2c(F)cc(F)cc2F)S(=O)(=O)c2c(F)c(F)c(F)c(F)c2F)c(C2CC2)c1 has what half-life at 25 μM?
2.37 to 4.12 h

Entry CC(C)(C)c1cc(CN(C(=O)CN(Cc2ccccc2F)S(=O)(=O)c2c(F)c(F)c(F)c(F)c2F)c2cc(C(=O)O)ccc2OC2CC2)cc(C2CC2)c1 has what half-life at 25 μM?
2.37 to 4.12 h

Entry CC(C)Oc1cc(C(=O)O)ccc1N(Cc1cc(C2CC2)cc(C2CC2)c1)C(=O)CN(Cc1ccccc1C#N)S(=O)(=O)c1c(F)c(F)c(F)c(F)c1F has what half-life at 25 μM?
2.37 to 4.12 h

Entry CC(C)c1cc(CN(C(=O)CN(Cc2ccc(Cl)cc2)S(=O)(=O)c2c(F)c(F)c(F)c(F)c2F)c2ccc(C(=O)O)c(O)c2)cc(C2CC2)c1 has what half-life at 25 μM?
0.00167 to 2.37 h

Entry COc1cc(C(=O)O)ccc1N(Cc1cc(C2CC2)cc(C(C)(C)C)c1)C(=O)CN(Cc1c(F)c(F)cc(F)c1F)S(=O)(=O)c1c(F)c(F)c(F)c(F)c1F has what half-life at 25 μM?
2.37 to 4.12 h

Entry N#Cc1ccccc1CN(CC(=O)N(Cc1cc(C2CC2)cc(C2CC2)c1)c1ccc(C(=O)O)cc1OC1CCCC1)S(=O)(=O)c1c(F)c(F)c(F)c(F)c1F has what half-life at 25 μM?
4.12 to 9.23 h

Entry O=C(O)c1ccc(N(Cc2cc(C3CC3)cc(C(F)(F)F)c2)C(=O)CN(Cc2ccccc2C(F)(F)F)S(=O)(=O)c2c(F)c(F)c(F)c(F)c2F)c(OC2CC2)c1 has what half-life at 25 μM?
9.23 to 1670 h

Entry CC(C)(C)c1cc(CN(C(=O)CN(Cc2ccc(F)cc2Cl)S(=O)(=O)c2c(F)c(F)c(F)c(F)c2F)c2ccc(C(=O)O)cc2OC2CCOC2)cc(C2CC2)c1 (stereo not shown) has what half-life at 25 μM?
2.37 to 4.12 h

Entry O=C(O)c1ccc(N(Cc2cc(C3CC3)cc(C3CC3)c2)C(=O)CN(Cc2ccccc2C(F)(F)F)S(=O)(=O)c2c(F)c(F)c(F)c(F)c2F)c(OC2CC2)c1 has what half-life at 25 μM?
4.12 to 9.23 h

Entry CC(C)(C)c1cc(CN(C(=O)CN(Cc2ccccc2N2CCCC2)S(=O)(=O)c2c(F)c(F)c(F)c(F)c2F)c2ccc(C(=O)O)cc2OC2CC2)cc(C2CC2)c1 has what half-life at 25 μM?
9.23 to 1670 h
